Tested on: U2932 cells (MYD88 WT)
run description: Cell viability (CTG) with U2932
Format: cell-based
setup conditions: Homo sapiens, MYD88 WT line
pIC50: −log10 of the molar value.
recorded endpoint: pIC50

Prompt line: Fill blank: measured pIC50 of the compound CC[C@@H]1CC(=O)N[C@@H]1COc1ncc(C#C[C@H]2CC[C@H](CN3CCC(OCCCc4cccc5c4n(C)c(=O)n5C4CCC(=O)NC4=O)CC3)CC2)c2cc(C(N)=O)c(OC)cc12 (stereo partly shown) is ____.
Response line: < 5.00
